- Test system: NCI-H522
- measurement_notes: NCI tumour cell line growth inhibition, 48 h
Calls of active or inactive are those of the source. Rule as the data show it: active = GI50 up to about 1.1 µM and inactive = higher.
Field: GI50. Provide a value for each of the molecules that follow.

A selection of reference data follows.
{"columns": ["molecule", "GI50"],
 "data": [
  ["Nc1nc(Cl)c(N)c(NCC2(CO)CC2)n1", "> 100 µM (inactive)"],
  ["C=CC(OC(C)=O)c1ccc(OC(=O)C(C)C)c(OC)c1 (stereo not given)", "1.54 µM (inactive)"],
  ["Cc1c(C)c2c(c(N)c1C#N)C(=O)N(NC(=O)c1ccccc1)C2=O", "> 100 µM (inactive)"],
  ["O=C1/C(=C/c2ccc(Br)cc2)CCC/C1=C\\c1ccc(Br)cc1", "13.6 µM (inactive)"],
  ["Cn1c(=O)c2c(nc(NCCNc3nc4c(c(=O)n(C)c(=O)n4C)n3C)n2C)n(C)c1=O", "> 100 µM (inactive)"]
]}

Batch request: GI50 per item, same order as input.
1. C=C1CC2(C)CCC(OC(=O)C3(C)OC3C)C(C)(OC(C)=O)C2CC1=C(C)C (stereo not given)
2. COc1cc2cc(OC(C)=O)c3cc4c(cc3c2c(OC)c1OC)OCO4
3. CCCCCCc1cc2cc(C(=O)Nc3cccc(F)c3)c(=N)oc2cc1O

A)
1. > 100 µM (inactive)
2. > 100 µM (inactive)
3. 1.59 µM (inactive)

Batch request: GI50 per item, same order as input.
1. CN(C)c1n/c(=N/c2ncn[nH]2)ss1
2. CCCCCC(O)C1C(=O)OC(C)C(O)/C=C/C=C/C=C/C=C/C=C(\C)C(O)C(O)C(O)CC(O)CC(O)CC(O)CC(O)CC1O (stereo not given)

A)
> 100 µM (inactive)
1.73 µM (inactive)

* * *

- Test system: RPMI-8226
- measurement_notes: NCI tumour cell line growth inhibition, 48 h
Active and inactive are the calls of the source. Cut-off read from the data, not from the text of the source: active = GI50 up to about 1.1 µM and inactive = higher.
readout_label: GI50

{"columns": ["compound", "target_system", "readout_label", "assay_value"],
 "data": [
  ["Cc1ccccc1NC(=O)C1C(=O)N(c2ccccc2C)C(=O)/C1=N\\N (stereo not given)", "RPMI-8226", "GI50", "> 100 µM (inactive)"],
  ["Cc1ccc(C2=C(c3ccccc3)C(O)(c3ccccc3)C(c3ccccc3)=C2c2ccc(C)cc2)cc1", "RPMI-8226", "GI50", "35.7 µM (inactive)"],
  ["Cc1ccc(SCC(=O)C2=C(O)CCCC2=O)cc1", "RPMI-8226", "GI50", "> 100 µM (inactive)"]
]}

Batch request: GI50 per item, same order as input.
1. c1ccc(CN2CCN3CCN(CC2)CCN(Cc2ccccc2)CC3)cc1
2. CCN(C(=O)N[C@@H](Cc1ccccc1)C(=O)N[C@@H](CC(C)C)C(=O)NC)c1ccccc1
3. Nc1nc2ncn(CCO)c2c(=S)[nH]1
4. Cc1cc(NC(=S)Nc2ccccc2)c(NC(=S)Nc2ccccc2)cc1C
5. Cc1nc2ccc(S(=O)(=O)O)cc2c(=O)n1-c1ccc(C(=O)NN2C(=O)C(Cl)C2c2cccs2)cc1 (stereo not given)

A)
2.14 µM (inactive)
77.1 µM (inactive)
> 100 µM (inactive)
8.47 µM (inactive)
> 100 µM (inactive)

Batch request: GI50 per item, same order as input.
1. Nn1c(CCCCCCCCc2nnc(COc3ccccc3)n2N)nnc1COc1ccccc1
2. C/C(=N\NC(=O)Nc1ccccc1Cl)c1ccc(O)cc1

A)
["> 100 µM (inactive)", "> 100 µM (inactive)"]

* * *

- Test system: RXF 393
- measurement_notes: NCI tumour cell line growth inhibition, 48 h
Active and inactive are the calls of the source. No stated cut-off is given here; in the data, active = GI50 up to about 1.1 µM and inactive = higher. Peptide text beside a SMILES is read from it. * marks the point of attachment. Boc = CC(C)(C)OC(=O)*; OtBu = CC(C)(C)O*
Bench note: report the call from active, inactive

Completed entries (count: 2):
{"columns": ["compound", "class_assignment"],
 "data": [
  ["Cc1c(C)c2c(c(N)c1C#N)C(=O)N(NC(=O)c1ccccc1)C2=O", "inactive"],
  ["CC1=N/C(=C\\c2ccc(N)cc2)C(=O)N1Nc1nnc(NN2C(=O)/C(=C/c3ccc(N)cc3)N=C2C)c2ccccc12", "inactive"]
]}

Q) Status in this test for COc1cc([C@@H]2OC(=O)C3C2C(=O)O[C@H]3c2cc(OC)c(OC)c(OC)c2)cc(OC)c1OC (some centres undefined) ?
A) inactive

Q) Status in this test for O=C(Nc1cccc(NC(=O)C(=O)C2CCC3=C(Sc4ccccc4N3)C2=O)n1)C(=O)C1CCC2=C(Sc3ccccc3N2)C1=O (centres undefined) ?
A) inactive

Q) Status in this test for O=C1C=CC(CC(=O)c2ccc3ccccc3c2)O1 (centres undefined) ?
A) inactive

Q) Status in this test for `CC1(C)O[C@H]2[C@H](O)C[C@](O)(CO)C[C@H]2O1` ?
A) inactive

Q) Status in this test for C/C(=C/CC[C@](C)(OC1OC(CO)C(O)C(O)C1O)[C@H]1CC[C@]2(C)[C@@H]1CC[C@@H]1[C@@]3(C)CC[C@H](O)C(C)(C)[C@@H]3C[C@H](O)[C@]12CO)CO (some centres undefined) ?
A) inactive

Q) Status in this test for `N=c1nc(N)c2cc3c(N)nc(=N)c3cc12` ?
A) inactive

Q) Status in this test for COc1ccccc1/C=C1\CCC(Cc2ccccc2)(CN(C)C)C1=O (centres undefined) ?
A) inactive

Q) Status in this test for CC(C)(C)OC(=O)CC(NC(=O)OC(C)(C)C)C(=O)NC(Cc1ccccc1)C(N)=O (centres undefined) (Boc-Asp(OtBu)-Phe-NH2; configuration not given here) ?
A) inactive

Q) Status in this test for `CCN(CC)CCOc1ccc(C(=C2CCCCC2)c2ccc(OCCN(CC)CC)cc2)cc1` ?
A) inactive

Q) Status in this test for `Cc1cc(C)c2c(=O)n(CN3CCC(O)(c4ccccc4)CC3)sc2n1` ?
A) inactive

* * *

- System: Hs-578T
- measurement_notes: NCI tumour cell line growth inhibition, 48 h
The source made the active and inactive calls. No stated cut-off is given here; in the data, active = GI50 up to about 1.1 µM and inactive = higher.
readout_label: GI50

A selection of reference data follows.
{"columns": ["molecule", "target_system", "GI50"],
 "data": [
  ["CCCCSC1=N/C(=C\\c2ccc(N(C)C)cc2)C(Cl)=N1", "Hs-578T", "> 100 µM (inactive)"],
  ["Oc1cc(-c2ccc3ccccc3c2)nc2ncc(Cl)cc12", "Hs-578T", "5.27 µM (inactive)"],
  ["CCCCCCCCCCCCCCCCNC(=O)/C(=C\\c1ccc(Cl)c(Cl)c1)NC(=O)c1ccccc1", "Hs-578T", "42.8 µM (inactive)"],
  ["O=C1NC(O)CCN1C1CC(O)C(CO)O1 (stereo not given)", "Hs-578T", "> 100 µM (inactive)"],
  ["COC1OC(COC(=O)NCCCCC(=O)C(F)(F)F)C(O)C(O)C1O (stereo not given)", "Hs-578T", "> 100 µM (inactive)"]
]}

Batch request: GI50 per item, same order as input.
1. Nn1c(CCCCCCCCc2nnc(COc3ccccc3)n2N)nnc1COc1ccccc1
2. CC(C)C1OC(=O)C(Cc2ccccc2)N(C)C(=O)C(C(C)C)OC(=O)C(Cc2ccccc2)N(C)C(=O)C(C(C)C)OC(=O)C(Cc2ccccc2)N(C)C1=O (stereo not given)

A)
1. > 100 µM (inactive)
2. 1.18 µM (inactive)

Batch request: GI50 per item, same order as input.
1. CCOC(=O)NC(Nc1ncccn1)(C(F)(F)F)C(F)(F)F
2. CC(C)=CC1C(C(=O)OCc2cc3c(cc2Cl)OCO3)C1(C)C (stereo not given)
3. CC(NC(=O)OC(C)(C)C)C(=O)NC1CCCC1 (stereo not given)
4. Nc1nc(Cl)c(N)c(NCC2(CO)CC2)n1
5. N#CC(C#N)=Cc1ccc(C=C2SC3=C(SCCS3)S2)s1
6. Cc1ccc(C2SC(=N)Nc3c2c(C)nn3C(=O)c2ccccc2O)cc1 (stereo not given)
7. O=[N+]([O-])c1ccc(NN=C2CN3CCN(C2)c2ccccc23)c([N+](=O)[O-])c1

A)
1. > 100 µM (inactive)
2. 21.9 µM (inactive)
3. > 100 µM (inactive)
4. > 100 µM (inactive)
5. 41.6 µM (inactive)
6. 1.51 µM (inactive)
7. > 100 µM (inactive)

Batch request: GI50 per item, same order as input.
1. COc1cc(OC)cc(OCc2nc3cc(C(F)(F)F)ccc3nc2-c2ccccc2)c1
2. C=C1CC2(C)CCC(OC(=O)C3(C)OC3C)C(C)(OC(C)=O)C2CC1=C(C)C (stereo not given)
3. O=C1O/C(=C\c2ccc(O)c(Br)c2)C(c2ccc(O)c(Cl)c2)=C1Br
4. CC(C)N(C(=O)c1ccc(NCc2cc(O)ccc2O)cc1)C(C)C
5. NS(=O)(=O)c1ccc(N2C(=O)C(=O)N(c3ccccc3)C2=S)cc1
6. CCCCNCCCNCCCNC(=O)c1csc(-c2csc(CCNC(=O)C(NC(=O)C(C)C(O)C(C)NC(=O)C(NC(=O)c3nc(C(CC(N)=O)NCC(N)C(N)=O)nc(N)c3C)C(OC3OC(CO)C(O)C(O)C3OC3OC(CO)C(O)C(OC(N)=O)C3O)c3c[nH]cn3)C(C)O)n2)n1 (stereo not given)

A)
["69.2 µM (inactive)", "> 100 µM (inactive)", "15.7 µM (inactive)", "26.2 µM (inactive)", "> 100 µM (inactive)", "8.79 µM (inactive)"]
